target: SARS-CoV-2 Wuhan-Hu-1 RBD for SPR binding assays (SARS-CoV-2 Wuhan-Hu-1 (NC_045512.2), UniProt P0DTC2)
method_notes: SPR
details: both partners purified
value_type: Kd (nM)

1. CT-P59 IgG1 (antibody, V domains shown, IgG1) VH: QITLKESGPTLVKPTQTLTLTCSFSGFSLSTSGVGVGWIRQPPGKALEWLALIDWDDNKYHTTSLKTRLTISKDTSKNQVVLTMTNMDPVDTATYYCARIPGFLRYRNRYYYYGMDVWGQGTTVTVSS VL: ELVLTQPPSVSAAPGQKVTISCSGSSSNIGNNYVSWYQQLPGTAPKLLIYDNNKRPSGIPDRFSGSKSGTSATLGITGLQTGDEADYYCGTWDSSLSAGVFGGGTELTVL
0.066
2. REGN10933 IgG1 (antibody, V domains shown, IgG1) VH: QVQLVESGGGLVKPGGSLRLSCAASGFTFSDYYMSWIRQAPGKGLEWVSYITYSGSTIYYADSVKGRFTISRDNAKSSLYLQMNSLRAEDTAVYYCARDRGTTMVPFDYWGQGTLVTVSS VL: DIQMTQSPSSLSASVGDRVTITCQASQDITNYLNWYQQKPGKAPKLLIYAASNLETGVPSRFSGSGSGTDFTFTISGLQPEDIATYYCQQYDNLPLTFGGGTKVEIK
0.689
3. S2X35 IgG (antibody, V domains shown) VH: QVQLVQSGAEVKKPGASVKVSCKASGYTFTNYGISWVRQAPGQGLEWMGWISAYKGNTNYAQKLQGRVTMTTDTSTSTAYMELRSLRSDDTAVYYCARPDYQVLGYDFWIGYYGMDVWGQGTTVIVSS VL: QSVLTQPPSVSGAPGQRVTISCTGSSSNIGAGYDVHWYQQLPGTAPKLLIYGNTNRPSGVPDRFSGSKSGTSASLAITGLQAEDEADYYCQSYDSSLSGSEVVFGGGTKLTVL
0.268
